tested on: Hs-578T; assay: NCI tumour cell line growth inhibition, 48 h
Activity calls are given as the source filed them. Rule as the data show it: active = GI50 up to about 1.1 µM and inactive = higher.
property label: GI50

1) COC(=O)[C@@H](NC(=O)N(Cc1ccccc1)C[C@H](CC(C)C)NC(=O)[C@@H](NC(=O)OC(C)(C)C)C(C)C)C(C)C : 88.1 µM (inactive)

# molecule BrCC[N+]12CCCN1CCC2 ; its GI50 = 0.692 µM (active)

# molecule COc1ccc(N2C(=O)c3c4c(c5c([nH]c6ncccc65)c3C2=O)CCC(C(C)(C)C)C4)cc1 (stereo not drawn) ; its GI50 = 28.8 µM (inactive)

# molecule O=C(/C=c1\oc(=O)/c(=C/C(=O)c2ccc(Cl)cc2)oc1=O)c1ccc(Cl)cc1 ; its GI50 = 34.2 µM (inactive)

# molecule CCCCCC/C=C\CCCCCCCCCC1=CC(=O)C=C(OC)C1=O ; its GI50 = 7.36 µM (inactive)

# molecule O=C(O)CN1CCNCCN(CC(=O)O)CCNCC1 ; its GI50 = > 24.1 µM (inactive)

# molecule CN(C)c1ccc(C(=N/N=C2\C(=O)Nc3ccccc32)c2ccc(N(C)C)cc2)cc1 ; its GI50 = 0.836 µM (active)

# molecule COc1cc(/C=C/c2ccc(C)cc2)cc(OC)c1OC ; its GI50 = 2.56 µM (inactive)

# molecule Nc1nc(Cl)c(C=O)c(NCC2(CO)CCC2)n1 ; its GI50 = 22.2 µM (inactive)

# molecule O=C(CCC=C(S(=O)(=O)c1ccccc1)S(=O)(=O)c1ccccc1)c1ccccc1 ; its GI50 = 5.22 µM (inactive)

# molecule Cc1[nH]nc(-c2ccon2)c1N=O ; its GI50 = 26.9 µM (inactive)

# molecule Cn1c(=O)c2c(nc(Cc3ccccc3)n2CC(=O)O)n(C)c1=O ; its GI50 = > 100 µM (inactive)

# molecule CC1(O)Oc2ccc3ccccc3c2C=C1C(N)=O (stereo not drawn) ; its GI50 = > 100 µM (inactive)

###

system: HL-60; assay: NCI tumour cell line growth inhibition, 48 h
Calls of active or inactive are those of the source. Cut-off read from the data, not from the text of the source: active = GI50 up to about 1.1 µM and inactive = higher.
In this exercise, the only acceptable responses are active, inactive

1. Cn1c(-c2cccc(N)c2)[n+](C)c2ccccc21 : inactive
2. COc1cc2c3c(cc(Cl)nc3c1OC)C(O)(CC(C)=O)C(=O)N2 (stereo not given) : inactive
3. Cc1nc2c(o1)C(=O)c1ccccc1/C2=N/c1ccc(N2CCOCC2)cc1 : inactive

// query Kindly provide the recorded test outcome for the following compound: Cc1cccc(C)c1NC(=O)CCCC(=O)C1/C(=N/NC(=O)CC#N)CCC/C1=N\NC(=O)CC#N (stereo not given)
// result inactive

// query Kindly provide the recorded test outcome for the following compound: O=C1NC2CCCCC2NC1=C(C(=O)c1ccccc1)C(=O)c1ccccc1 (stereo not given)
// result inactive

// query Kindly provide the recorded test outcome for the following compound: COc1ccc(C=O)cc1O[Si](C)(C)C(C)(C)C
// result inactive

###

Collected GI50 values appear next to each entry.
system: SK-MEL-2; assay: NCI tumour cell line growth inhibition, 48 h
The source made the active and inactive calls. Cut-off read from the data, not from the text of the source: active = GI50 up to about 1.1 µM and inactive = higher.

1) N#CCc1nnc(N)o1 : > 100 µM (inactive)
2) O=C(O)CCNc1ncc2c(n1)-c1ccccc1OC2 : > 100 µM (inactive)
3) Cc1nc2c(o1)C(=O)c1ccccc1/C2=N/c1ccc(N2CCOCC2)cc1 : 2.75 µM (inactive)
4) CCC1(OC(=O)CNC)C(=O)OCc2c1cc1n(c2=O)Cc2cc3ccccc3nc2-1 (stereo not given) : 0.155 µM (active)

Param item: CCCCOC(=O)NC(Nc1ccc(S(N)(=O)=O)cc1)(C(F)(F)F)C(F)(F)F ; param system: SK-MEL-2; output GI50: > 100 µM (inactive)

###

tested on: NCI-H226; test: NCI tumour cell line growth inhibition, 48 h
Calls of active or inactive are those of the source. Rule as the data show it: active = GI50 up to about 1.1 µM and inactive = higher.
In this exercise, the only acceptable responses are active, inactive

Previously resolved entries follow.
1) COc1ccc(CNc2nc3ccccc3nc2-c2cccs2)cc1 : inactive
2) CN(C(=O)C1CC1)C1C2CN3CCC(O2)C13 (centres undefined) : inactive
3) CCC1(OC(=O)CNC)C(=O)OCc2c1cc1n(c2=O)Cc2cc3ccccc3nc2-1 (centres undefined) : active
4) O=C(CSCC(=O)N/N=C\c1cccc([N+](=O)[O-])c1)N/N=C\c1cccc([N+](=O)[O-])c1 : inactive

Proceed to the following item.
// query Kindly provide the recorded test outcome for the following molecule: CCCCCCCC/C=C\CCCCCCC/C=C1/C[C@](/C=C/C(=O)OC)(CO)OC1=O
// result inactive

###

tested on: OVCAR-4; assay: NCI tumour cell line growth inhibition, 48 h
Calls of active or inactive are those of the source. No stated cut-off is given here; in the data, active = GI50 up to about 1.1 µM and inactive = higher.
In this exercise, the only acceptable responses are yes (1) (active), no (0) (inactive)

Previously resolved entries follow.
1) Cc1noc(C)c1CCCOC1COc2ccccc2OCCOCCOc2ccccc2OC1 : no (0)
2) CSC(=S)NN=C1CCCC1.CSC(=S)NN=C1CCCC1.[Zn+2] : no (0)
3) Cc1cc2c(c(N)c1C)C(=O)c1ccccc1C2=O : no (0)
4) CC1=C2[C@@H](c3ccccc3)C3C=CC2(C=C3C(F)(F)F)N(C(=O)NC2CCCCC2)C1=O (some centres not stated) : no (0)
5) c1ccc2c3c(ccc2c1)CSCc1ccc2ccccc2c1-3 : no (0)
6) Cc1cc(NS(=O)(=O)c2ccc(NC(=O)c3ccc(Cl)c4c(Nc5ccc(S(=O)(=O)Nc6cc(C)on6)cc5)c5ccccc5nc34)cc2)no1 : no (0)

Proceed to the following item.
// query Kindly provide the recorded test outcome for the following compound: CCN(CC)CCc1c2c(nc3ccccc13)C(=O)c1cccnc1C2=O
// result yes (1)

###

tested on: SK-MEL-2; test: NCI tumour cell line growth inhibition, 48 h
The source made the active and inactive calls. Rule as the data show it: active = GI50 up to about 1.1 µM and inactive = higher.
Collected GI50 values appear next to each entry.

1) O=C(O)CCC(=O)N1C/C(=C\c2ccccc2)C(=O)/C(=C/c2ccccc2)C1 : 1.82 µM (inactive)

# compound CCN1CCC(O)(c2ccc(OC)cc2)C(C(=O)c2ccc(OC)cc2)C1 (configuration not stated) ; its GI50 = 19.6 µM (inactive)

# compound O=C(O)CSc1nnc(COc2ccc(Cl)cc2)n1-c1ccccc1 ; its GI50 = > 100 µM (inactive)

# compound CN(C)CCn1c2ccccc2c2nc3cc4ccccc4cc3nc21 ; its GI50 = 11.1 µM (inactive)

# compound C=CC(=O)NC(=N)NC#N ; its GI50 = > 100 µM (inactive)

# compound Nc1nc(Cl)cc(NCC2(CO)COC2)n1 ; its GI50 = > 100 µM (inactive)

# compound CC(=O)/C=C/c1ccc(C)cc1 ; its GI50 = > 100 µM (inactive)

###

// GI50 collected for HCT-15

1) CC(O)C1(CNc2cc(Cl)nc(N)n2)CCCC1 (configuration not stated) : > 100 µM
2) COc1cccc(C2SC(=N)Nc3c2c(C)nn3C(=O)Cc2ccccc2)c1 (configuration not stated) : > 100 µM
3) COc1cc(OC)c2nc(C)c3c(c2c1)OCC3 : > 100 µM
4) CC1=Nc2nc3ccccc3n2C(C)(C)C1 : > 100 µM
5) O=C1c2ccccc2CC12Cc1cc3c(cc1C2=O)CCC3 (configuration not stated) : > 100 µM

Param item: O=C(C#Cc1cn(C2CC(O)C(CO)O2)c(=O)[nH]c1=O)c1ccccc1 (configuration not stated) ; param system: HCT-15; output GI50: > 100 µM

Param item: C1CC2=C(C1)C1=S(S2)SC2=C1CCC2 ; param system: HCT-15; output GI50: > 100 µM

Param item: COC(=O)/C(C#N)=C1\NN=NN1CCCN1CCOCC1 ; param system: HCT-15; output GI50: > 100 µM

Param item: NC(=O)c1ccc(S(=O)(=NS(=O)(=O)c2ccccc2)c2ccc(C(N)=O)cc2)cc1 ; param system: HCT-15; output GI50: > 100 µM

Param item: CC1=NN(c2nc(N)nc(CN3CCOCC3)n2)C(C)(C)C1 ; param system: HCT-15; output GI50: > 100 µM

Param item: Cc1ccc(NC(=O)C(=O)C2C(=O)NC(=O)NC2=O)cc1C ; param system: HCT-15; output GI50: > 100 µM

Param item: O=C(O)CCC1CCc2cccc(OCC(=O)O)c2C1=O (configuration not stated) ; param system: HCT-15; output GI50: > 100 µM

Param item: OC(c1ccoc1)c1cc2ccccc2s1 (configuration not stated) ; param system: HCT-15; output GI50: > 10 µM

Param item: Cc1ccc(/C=c2\cc3oc(=O)c4cccc(c4-3)c2=O)cc1 ; param system: HCT-15; output GI50: > 100 µM

Param item: Cc1ccc(S(=O)(=O)NCCSCCNS(=O)(=O)c2ccc(C)cc2)cc1 ; param system: HCT-15; output GI50: > 100 µM

Param item: CCCCC1CC(c2cccc([N+](=O)[O-])c2)=NO1 (configuration not stated) ; param system: HCT-15; output GI50: > 100 µM
